Reference for the values: ChEMBL document CHEMBL3763021

- assay.name: Cmax in Sprague-Dawley rat at 5 mg/kg, po by LC/MS/MS analysis
- Assay type: ADME, organism-based
- Parameters: dose 5 mg/kg, route oral
- cond: in vivo
readout.type: Cmax (ng/mL)

- smiles.representation: "Cc1ccc(CN2CCOCC2)cc1NC(=O)c1ccc(Nc2nccc(-c3ccc(OC(F)(F)F)cc3)n2)cn1"
  endpoint.unit: "ng/mL"
  value: 137
- smiles.representation: "Cc1ccc(CN2CCOCC2)cc1NC(=O)c1ccc(Nc2ncc(F)c(-c3ccc(OC(F)(F)F)cc3)n2)cc1"
  endpoint.unit: "ng/mL"
  value: 494
- smiles.representation: "Cc1c(C(=O)Nc2ccc(N3C[C@@H](C)O[C@@H](C)C3)nc2)cccc1-c1ccc(OC(F)(F)F)cc1"
  endpoint.unit: "ng/mL"
  value: 1400
- smiles.representation: "Cc1ccc(CN2CCOCC2)cc1NC(=O)c1ccc(Nc2ncc(F)c(-c3ccc(OC(F)(F)F)cc3)n2)cn1"
  endpoint.unit: "ng/mL"
  value: 86.6
- smiles.representation: "Cc1ccc(CN2CCOCC2)cc1NC(=O)c1ccc(Nc2nccc(-c3ccc(OC(F)(F)F)cc3)n2)cc1"
  endpoint.unit: "ng/mL"
  value: 635
- smiles.representation: "CS(=O)(=O)c1ccc(C(=O)Nc2ccc(Cl)c(-c3ccccn3)c2)c(Cl)c1"
  endpoint.unit: "ng/mL"
  value: 3640
